System: phospho-akt (Thr308) in PC-3 cells
Assay: Inhibition of phospho-akt (Thr308) in PC-3 cells, MSD phospho-akt 308 ELISA kit
Format: cell-based
Conditions: Homo sapiens; inhibition of P308 Akt in PC-3 cells using MSD, 2 hours, no serum; read-out: EC50
Record form. Attribute: EC50. Fill in for each entry.

Known EC50 results, listed for orientation:
{"STRUCTURE": "C[C@H](NC(=O)c1cc(C#N)cnc1NCc1cnc(-c2cnc3[nH]ncc3c2)nc1)c1ccc(F)cc1", "EC50": "> 10 µM"}
{"STRUCTURE": "C[C@H](NC(=O)c1cc(C#N)cnc1NCc1ccc(-c2cnc3[nH]c(=O)[nH]c3c2)cc1)c1ccc(F)cc1", "EC50": "< 1 µM"}
{"STRUCTURE": "Nc1n[nH]c2ncc(-c3ccc(CNc4ncc(C(F)(F)F)cc4C(=O)N[C@@H](CO)c4ccc(Br)cc4)cc3)cc12", "EC50": "1 to 10 µM"}
{"STRUCTURE": "CN1CCN(Cc2cccc(NC(=O)c3cc(C(F)(F)F)cnc3NCc3ccc(-c4cnc5[nH]nc(N)c5c4)cc3)c2)CC1", "EC50": "1 to 10 µM"}
{"STRUCTURE": "Cc1cc(CNc2ncc(C#N)cc2C(=O)N[C@@H](C)c2ccc(F)cc2)ccc1-c1cnc2[nH]nc(N)c2c1", "EC50": "1 to 10 µM"}
{"STRUCTURE": "C[C@H](NC(=O)c1nc(C#N)cnc1NCc1ccc(-c2cnc(N)c(N3CCC[C@@H](N)C3)n2)cc1)c1ccc(F)c(F)c1", "EC50": "1 to 10 µM"}

Shifting focus to the compound that follows.
Record for C[C@H](NC(=O)c1cccnc1NCc1ncc(-c2ccc3ncc4ncn(C)c4c3c2)s1)c1ccc(F)c(F)c1 under target or system phospho-akt (Thr308) in PC-3 cells: EC50 reported as < 1 µM

---

Could you please report measured IC50 for the items listed next?
Target: UniProtKB O15530
Sequence (O15530 51-359): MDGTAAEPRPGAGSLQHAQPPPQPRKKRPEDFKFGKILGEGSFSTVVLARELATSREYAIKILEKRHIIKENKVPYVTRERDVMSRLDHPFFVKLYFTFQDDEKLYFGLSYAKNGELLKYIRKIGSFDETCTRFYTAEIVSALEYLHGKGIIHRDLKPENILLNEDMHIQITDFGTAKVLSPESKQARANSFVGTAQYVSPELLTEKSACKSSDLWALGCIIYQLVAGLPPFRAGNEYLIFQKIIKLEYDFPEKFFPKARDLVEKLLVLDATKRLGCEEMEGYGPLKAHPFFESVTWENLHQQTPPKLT
Test: PDK1 kinase assay (coupled PDK1/AKT/FAM-crosstide assay, IMAP fluorescence polarization)
Type: biochemical
Conditions: inhibition of phospo-PDK1 in vitro
Structures can show the parent of a compound that is named as a salt.

Example molecules with recorded IC50:
{"MOLECULE": "Cn1cnc2cnc(-c3ccc(CNc4ncccc4C(=O)NCc4ccc(F)c(F)c4)s3)cc21 [Example 8.14.3]", "TARGET ENTITY": "UniProtKB O15530", "IC50": "> 5000 nM"}
{"MOLECULE": "C[C@H](NC(=O)c1cccnc1NCc1ccc(-c2ccc3ncc(-n4ccnc4)nc3c2)s1)c1ccc(F)c(F)c1 [Example 4.29]", "TARGET ENTITY": "UniProtKB O15530", "IC50": "> 5000 nM"}
{"MOLECULE": "C[C@H](NC(=O)c1cccnc1NCc1ccc(-c2cn(C)c3ncnc(N)c23)cc1)c1ccc(F)c(F)c1 [Example 2.38]", "TARGET ENTITY": "UniProtKB O15530", "IC50": "< 100 nM"}

Kindly give each listed record's IC50.
1. C[C@@H](NC(=O)c1cccnc1NCc1ccc(-c2ccc3ncnc(N)c3c2)s1)c1ccc(F)cc1 [Example 3.14, (TFA salt)]
2. Cc1ccc(CNC(=O)c2cccnc2NCc2cc(OC(C)C)cc(-c3c[nH]c4ncc(C(=O)NC5CC5)cc34)c2)o1 [Example 4.1.14]

1: > 5000 nM; 2: < 100 nM

Consider the following items and state reported IC50 for each.
1. C[C@H](NC(=O)c1cc(C#N)cnc1N[C@@H](COc1ccc2[nH]c(=O)[nH]c2c1)c1ccccc1)c1ccc(F)cc1 [Example 16.10]
2. O=C(NCc1ccc(F)c(F)c1)c1cccnc1NCc1ccc(-c2ccc3ncnc(NCCN4CCCC4)c3c2)s1 [Example 4.20]

1: 100 to 1000 nM; 2: 100 to 1000 nM

I need IC50 for every entry listed below, if you could help.
1. C[C@H](NC(=O)c1cccnc1NCc1ccc(-c2ccc3ncnc(N)c3c2)s1)c1ccccn1 [Example 3.58, (TFA salt)]
2. COc1ccc([C@H](COc2ccc3[nH]c(=O)[nH]c3c2)Nc2ncccc2C(=O)N[C@@H](C)c2ccc(F)c(F)c2)cc1 [Example 16.8]
3. Nc1ncnc2ccc(-c3csc(CNc4ncccc4C(=O)NCc4ccc(F)c(F)c4)c3)cc12 [Ex. 6.14]
4. CN(C)C(=O)c1cnc(NCc2ccc(-c3ccc4ncnc(N)c4c3)s2)c(C(=O)NCc2ccc(F)c(F)c2)c1 [Example 7.24.4]

1. 100 to 1000 nM
2. 1000 to 5000 nM
3. < 100 nM
4. < 100 nM

Data origin: patent US10030016B2
